tested.on: T1, β-catenin (UniProt P35222 1-781, limits assumed)
T1 construct: also called beta-catenin
T1 sequence (looked up): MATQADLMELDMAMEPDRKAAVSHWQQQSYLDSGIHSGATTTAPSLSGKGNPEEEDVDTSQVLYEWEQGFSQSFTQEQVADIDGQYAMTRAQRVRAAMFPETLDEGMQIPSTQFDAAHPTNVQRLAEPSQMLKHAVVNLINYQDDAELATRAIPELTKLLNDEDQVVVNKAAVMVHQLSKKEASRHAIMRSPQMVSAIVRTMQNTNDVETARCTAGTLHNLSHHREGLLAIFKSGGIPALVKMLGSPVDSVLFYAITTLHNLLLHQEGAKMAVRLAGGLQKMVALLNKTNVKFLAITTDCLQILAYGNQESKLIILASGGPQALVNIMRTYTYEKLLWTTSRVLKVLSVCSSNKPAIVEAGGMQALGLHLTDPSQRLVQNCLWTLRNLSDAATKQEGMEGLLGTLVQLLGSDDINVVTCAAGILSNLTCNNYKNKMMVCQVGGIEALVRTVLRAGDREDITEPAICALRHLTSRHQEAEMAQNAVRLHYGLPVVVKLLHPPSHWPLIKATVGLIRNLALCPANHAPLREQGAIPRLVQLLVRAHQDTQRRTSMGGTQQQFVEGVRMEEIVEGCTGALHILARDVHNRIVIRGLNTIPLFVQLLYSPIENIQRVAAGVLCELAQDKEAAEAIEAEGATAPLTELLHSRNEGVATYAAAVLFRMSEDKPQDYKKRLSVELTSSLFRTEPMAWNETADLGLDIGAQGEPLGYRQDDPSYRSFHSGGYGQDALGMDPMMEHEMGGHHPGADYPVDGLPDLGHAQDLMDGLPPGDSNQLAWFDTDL
assay.summary: ALPHA Screen (BCL9/β-catenin);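 also: bead proximity readout with the polypeptide linked to donor beads and β-catenin fixed on acceptor beads, their binding bringing the beads close enough to emit signal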
Bridges are numbered along the chain shown (N, C = ends). Primed or numbered codes have the meaning given here. Where no end group is shown, it is not given here. [ ]: non-standard residue; d: D form. S5′ = (S)-2-(4'-pentenyl)alanine, olefinic stapling residue closed by ring-closing metathesis; 2Nal = N[C@@H](Cc1ccc2ccccc2c1)C(=O)O; Cba = N[C@@H](CC1CCC1)C(=O)O; S5 = C=CCCC[C@](C)(N)C(=O)O; Nle = CCCC[C@H](N)C(=O)O; βAla = NCCC(=O)O
Listed binders paired with reported IC50
readout.kind: IC50 (µM)

[
  {
    "binder": "Ac-EHRERSLQTLR[S5′]IQR[S5′][Cba][2Nal]-NH2 (staple 12-16; not fully specified; printed as EHRERSLQTLRXIQRX(CBA)(2-Nal)) [SEQ ID NO: 9]",
    "assay.result": 1.5
  },
  {
    "binder": "Ac-LQTLR[S5]IQR[S5]L[2Nal]P-NH2 (staple 6-10; not fully specified; printed as LQTLRXIQRXL(2-Nal)P) [SEQ ID NO: 33]",
    "assay.result": 11.8
  },
  {
    "binder": "Ac-LQTLR[S5]IQR[S5]L[2Nal][βAla][βAla]-NH2 (staple 6-10; not fully specified; printed as LQTLRXIQRXL(2-Nal)(β-Ala)(β-Ala)) [SEQ ID NO: 34]",
    "assay.result": 9.62
  },
  {
    "binder": "QLEHRERSLQTLR[Nle]IQR[Nle]L[2Nal] [SEQ ID NO: 66]",
    "assay.result": 0.73
  }
]
